Numbers sourced from patent US6596774B1.

Entries annotated with measured Inhibition % (0.5 mM)
Test system: Iron-induced Lipid Peroxidation in Rat Brain Homogenates
Assay: Assay of lipid peroxidation (TBA method)
Format: biochemical, Wistar rats
Settings: 0.5 mM; Table 3; Mean ± S.E., n = 4
Description: The inhibitory effect on lipid peroxidation of these compounds were evaluated with rat brain phospholipid liposomes which provide an ideal model system for lipid peroxidation studies by Teng C. M., et. al., Eur. J. Pharmacol., vol. 303, pp. 129-139 (1996). Assay of Lipid Peroxidation. Rat brain homogenate was prepared from the brains of freshly killed Wistar rats and its peroxidation in the presence of iron ions was measured by the thiobarbituric acid (TBA) method as described. […]
Where a name gives a salt, the structure may show the parent alone.
readout.name: Inhibition % (0.5 mM) (%)

Cc1ccc(NC2c3cccc(Cl)c3C(=O)c3cccc(Cl)c32)cc1 (centres unmarked) [Compound 4d]	100
O=C1c2c(O)ccc(O)c2C(=O)c2c(NCCNCCO)ccc(NCCNCCO)c21 [mitoxantrone-HCl, reference compound]	64
O=C1O[C@H]([C@@H](O)CO)C(O)=C1O [ascorbic acid, reference compound]	87
Cc1c(C)c2c(c(C)c1O)CC[C@@](C)(CCC[C@H](C)CCC[C@H](C)CCCC(C)C)O2 [(+)-α-tocopherol, reference compound]	53
Cc1cccc(NC2c3cccc(Cl)c3C(=O)c3cccc(Cl)c32)c1 (centres unmarked) [Compound 4b]	100
